Measurement Target: Keap1 Kelch domain (321-609) / TAMRA-labeled 16mer NRF2 peptide (ETGE motif) (Homo sapiens, UniProt Q14145)
Construct: the Kelch domain (321-609) of Keap1 is used
Sequence (Q14145 321-609): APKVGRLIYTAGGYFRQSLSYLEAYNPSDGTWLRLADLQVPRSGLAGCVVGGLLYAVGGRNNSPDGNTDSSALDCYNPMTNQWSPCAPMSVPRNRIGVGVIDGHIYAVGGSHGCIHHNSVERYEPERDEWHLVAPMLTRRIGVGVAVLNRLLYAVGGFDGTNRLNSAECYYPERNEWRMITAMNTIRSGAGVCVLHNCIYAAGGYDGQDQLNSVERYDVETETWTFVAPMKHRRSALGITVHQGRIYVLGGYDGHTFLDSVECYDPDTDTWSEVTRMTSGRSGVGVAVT
Assay Notes: NRF2-Keap1 FP Assay (Keap1 Kelch fluorescence polarization)
Test Settings: 20 nM Keap1 (321-609), 8 nM Tamra labeled peptide
Assay Metric: IC50

// worked examples, IC50 included
[
  {
    "Compound": "CC(Oc1cccc(-c2cc(O)cc(-n3ncc(C(=O)O)c3[C@H]3C[C@@H]3c3cn(C)nn3)c2)c1)C1CCCCC1 (mixture of isomers)",
    "Result": "100 to 1000 nM"
  },
  {
    "Compound": "C[C@H](Oc1cccc(-c2cccc(-n3ncc(C(=O)O)c3[C@@H]3C[C@H]3c3cn(CCN(C)C)nn3)c2)c1)C1CCCCC1 (racemic)",
    "Result": "10 to 100 nM"
  },
  {
    "Compound": "CCOC[C@@H]1CCCN1C(=O)c1cccc(-c2cccc(-n3ncc(C(=O)O)c3[C@@H]3C[C@H]3c3cn(C)nn3)c2)c1F",
    "Result": "10 to 100 nM"
  },
  {
    "Compound": "Cn1cc(C2CC2c2c(C(=O)O)cnn2-c2cccc(-c3cccc(OCc4ccccc4F)c3)c2)nn1 (centres unmarked)",
    "Result": "10 to 100 nM"
  },
  {
    "Compound": "Cn1cc([C@H]2C[C@@H]2c2c(C(=O)O)cnn2-c2cccc(-c3cccc(OCC(C)(C)C)c3)c2)nn1 (racemic)",
    "Result": "100 to 1000 nM"
  }
]

IC50 in this record for CC1CCC(C)N1C(=O)c1cccc(-c2cccc(-n3ncc(C(=O)O)c3C3CC3)c2)c1F (centres unmarked) : 100 to 1000 nM

IC50 in this record for O=C(O)c1cnn(-c2cccc(-c3cccc(C(=O)N4CCCCCC4)c3F)c2)c1C1CC1 : 10 to 100 nM

IC50 in this record for O=C(O)c1cnn(-c2cccc(-c3cccc(C(=O)N4CCCCC4C4CCCC4)c3F)c2)c1C1CC1 (centres unmarked) : 10 to 100 nM

IC50 in this record for C[C@H](Oc1cccc(-c2cccc(-n3ncc(C(=O)O)c3[C@H]3C[C@H]3c3cn(C)nn3)c2)c1)C1CCCCC1 (racemic) : > 10000 nM

IC50 in this record for CC(Oc1cccc(-c2cccc(-n3ncc(C(=O)O)c3C3CC3c3cn(C)nn3)c2)c1)C1CCCC1 (centres unmarked) : 10 to 100 nM

IC50 in this record for CC(C)CN(C)C(=O)c1cccc(-c2cccc(-n3ncc(C(=O)O)c3[C@@H]3C[C@H]3c3cn(C)nn3)c2)c1F (racemic) : 10 to 100 nM

IC50 in this record for COC(c1cccc(-c2cccc(-n3ncc(C(=O)O)c3C3CC3c3cn(C)nn3)c2)c1)C1CCCCC1 (centres unmarked) : 10 to 100 nM

IC50 in this record for CC[C@@H]1CN(Cc2cccc(-c3cccc(-n4ncc(C(=O)O)c4C4CC4c4cn(C)nn4)c3)c2)Cc2ccccc2O1 (some centres unmarked) : 10 to 100 nM

IC50 in this record for CC(CC1CCCCC1)Oc1cccc(-c2cccc(-n3ncc(C(=O)O)c3C3CC3c3cn(C)nn3)c2)c1 (centres unmarked) : 10 to 100 nM
